test system: SPN 49619; experiment: MIC, broth microdilution (CLSI), substance alone or ATB combined with compound at 4 or 8 μg/mL; assay type: cell-based, S. pneumoniae; conditions: Streptococcus pneumoniae; substance alone; SPN 49619; read-out: MIC
measurement kind: MIC (µg/mL)

| compound | MIC (µg/mL) |
| --- | --- |
| C[C@@H](O)[C@H]1C(=O)N2C(C(=O)O)=C(S[C@@H]3CN[C@H](C(=O)N(C)C)C3)[C@H](C)[C@H]12 [MEM, Meropenem] | 0.063 |

(a) CCN1CCN(C(=O)N[C@@H](C(=O)N[C@@H]2C(=O)N3[C@@H]2SC(C)(C)[C@@H]3C(=O)O)c2ccccc2)C(=O)C1=O [PIP, Piperacillin, reference compound]
(b) O=C1N2CC(n3cncn3)=CC(C2)N1OS(=O)(=O)[O-].[Na+] (stereo not shown) [Example 14]
(c) O=C1N2CC(c3cccnc3)=CC(C2)N1OS(=O)(=O)[O-].[Na+] (stereo not shown) [Example 8]
(d) NCCn1c2c(sc1=O)C1CN(C2)C(=O)N1OS(=O)(=O)[O-].[Na+] (stereo not shown) [Example 3]
Lookup: Order the records so the highest MIC appears first and the lowest last. As an answer, provide the labels arranged in the order called for.
Found: b, c, d, a
